Test system: Haemonchus contortus
assay-notes: Lethal dose against Haemonchus contortus Lawes ( levamisole and benzimidazole resistant) using NemaTox assay
Format: functional
measured-parameter: LD99 (µg/mL)

• COc1ccc(-c2ccc3nc(OC)cc(OC)c3c2)cc1 = 1.6
• c1ccc2[nH]c(-c3cscn3)nc2c1 = 5
• COc1cc(OC)c2cccc(-c3ccccc3)c2n1 = 6.3
• COc1cc(OC)c2cc(-c3ccccc3)ccc2n1 = 3.1
• COc1cc(OC)c2cc(Cl)ccc2n1 = 8.8
• COc1ccc(-c2cccc3c(OC)cc(OC)nc23)cc1 = 3.1

----------
LD99 overview
Tested on: Teladorsagia circumcincta
assay-notes: Lethal dose against Ostertagia circumcincta using NemaTox assay
Format: functional
measured-parameter: LD99

- COc1cc(OC)c2cccc(-c3ccccc3)c2n1: 6.3 µg/mL
- COc1ccc(-c2ccc3nc(OC)cc(OC)c3c2)cc1: 3.1 µg/mL
- COc1cc(OC)c2cc(-c3ccccc3)ccc2n1: 3.1 µg/mL
- COc1ccc(-c2cccc3c(OC)cc(OC)nc23)cc1: 3.1 µg/mL
- COc1cc(OC)c2cc(Cl)ccc2n1: 13 µg/mL
